System: Human alphaherpesvirus 2
Test details: Antiviral activity against HSV-2 assessed as inhibition of viral growth
Type: functional, organism-based
Experimental endpoint: pIC50
Answers are plain numbers, as −log10 of the molar value.

entry_smiles=Nc1nc(=O)c2ncn([C@@H]3C[C@H](CO)[C@H]3CO)c2[nH]1 assay_result=7.10

Turning now to a further record.
pIC50 in this record for Nc1ncnc2c1ncn2[C@@H]1C[C@H](CO)[C@H]1CO : 5.80

---

Test system: Human immunodeficiency virus 1
Test details: Antiviral activity against HIV-1 HTLV-IIIB infected in human MT4 cells assessed as inhibition of viral replication incubated for 4 days by immunofluorescence assay
Format: functional, organism-based
Applied conditions: Human immunodeficiency virus 1, HTLV-IIIB, MT4, 96 h
Experimental endpoint: EC50 (nM)
One number for each entry, in nM.

entry_smiles=Nc1nc(N)c2ncn([C@@H]3O[C@H](CO)[C@H]3CO)c2n1 scale_unit=nM assay_result=2200
entry_smiles=Nc1ncnc2c1ncn2[C@@H]1O[C@H](CO)[C@H]1CO scale_unit=nM assay_result=1400
entry_smiles=Nc1nc2c(ncn2[C@@H]2O[C@H](CO)[C@H]2CO)c(=O)[nH]1 scale_unit=nM assay_result=2200

// compound O=c1[nH]cnc2c1ncn2[C@@H]1O[C@H](CO)[C@H]1CO , assay Human immunodeficiency virus 1, EC50 value: 2200

---

Test details: Cytotoxicity against human Detroit 551 cells assessed as inhibition of cell growth by colorimetric method
Format: toxicity, cell-based
pIC50: −log10 of the molar value.
Experimental endpoint: pIC50

pIC50 in this record for Nc1nc2c(ncn2[C@@H]2O[C@H](CO)[C@H]2CO)c(=O)[nH]1 : < 3.52

---

Exercise: for every item that follows, state its recorded IC50.
Tested on: Human alphaherpesvirus 2
Test details: Antiviral activity against thymidine kinase deficient HSV-2 assessed as inhibition of viral replication by plaque reduction assay
Type: functional, organism-based
Answers are plain numbers, in µM.

molecule="Nc1nc2c(ncn2COCCO)c(=O)[nH]1 [ACYCLOVIR]" assay_result=12

Turning now to a further record.
IC50 in this record for Nc1nc(F)nc2c1ncn2[C@@H]1O[C@H](CO)[C@H]1CO : 3.9

---

Test system: Human alphaherpesvirus 1
Test details: Antiviral activity against HSV-1 assessed as inhibition of viral growth
Type: functional, organism-based
Experimental endpoint: pIC50
One number for each entry, as −log10 of the molar value.

entry_smiles=Nc1nc(=O)c2ncn([C@@H]3C[C@H](CO)[C@H]3CO)c2[nH]1 assay_result=7.33

Turning now to a further record.
pIC50 in this record for Nc1ncnc2c1ncn2[C@@H]1C[C@H](CO)[C@H]1CO : 5.80

---

Test details: Cytotoxicity against human CCD-18Co cells assessed as inhibition of cell growth by colorimetric method
Format: toxicity, cell-based
Experimental endpoint: IC50

IC50 in this record for Nc1nc2c(ncn2[C@@H]2O[C@H](CO)[C@H]2CO)c(=O)[nH]1 : > 300 µM
